- Test system: glycogen synthase kinase-3 (GSK3A per assay name; protocol says GSK3B)
- measurement_notes: GSK3 binders on small-molecule microarrays, primary screen, biochemical, small-molecule microarray, 635 nm fluorescence, GSK3A (AID 1103); further: the record names both GSK3A and GSK3B
- conditions: small-molecule microarray binding, fluorescence 635 nm; higher = more signal
Please provide measured composite z-score for the entries that follow.

molecule: COC(=O)[C@H](C)NC(=O)CCC1CC(OC(=O)NCc2ccc3c(c2)OCO3)CC2(CCCC(COC(=O)NCc3ccccc3)O2)O1 (some centres undefined)
composite z-score: 0.821

For every item below, please supply its composite z-score.
1. C=CC[C@@H]1C=C[C@H](ON=CC[C@@H]2C=C[C@H](OC(C)=O)[C@@H](COC(C)=O)O2)[C@@H](CO)O1
2. CC(CCC(=O)OC[C@H]1O[C@H](C#Cc2ccccc2)C=C[C@@H]1Oc1ccc(C)cc1)=NO[C@H](C)c1cn([C@@H]2COC[C@H]2O)nn1
3. CC(CCN1CCCCc2nc(C)c(C)cc21)=NOC[C@@H](O)[C@H]1O[C@@H]2OC(C)(C)O[C@@H]2[C@H]1O
4. CCOC(=O)CCN1C(=O)[C@H]2[C@H]3[C@H](O)[C@H](O)CC(=NO[C@@H]4O[C@H](CO)[C@@H](O)[C@H](O)[C@H]4O)[C@H]3CC[C@H]2C1=O

output:
1: 0.765; 2: -0.267; 3: 0.397; 4: 0.822

Please report composite z-score for every entry that follows.
1. C[C@@H]1CC[C@H]2C(=O)O[C@@H](CN=[N+]=[N-])CN2[C@H]1c1ccc(Br)cc1
2. CCOC(=O)[C@H](CC(C)C)NC(=O)CCC1CC(OC(=O)NCc2ccc3c(c2)OCO3)CC2(CCCC(COC(=O)NCCc3ccc(Cl)cc3)O2)O1 (some centres undefined)
3. CC(C)(C)N1C(=O)[C@H]2[C@H]3[C@H](O)[C@H](O)CC(=NOC[C@@H](O)COCc4ccco4)[C@@H]3CC[C@H]2C1=O

output:
0.636
0.293
-0.332

input: Look up composite z-score with glycogen synthase kinase-3 (GSK3A per assay name; protocol says GSK3B) for this molecule: `C[C@@H](c1ccccc1)N1C(=O)[C@H]2[C@H]3[C@H](O)[C@H](O)CC(=NOC[C@@H](O)COCc4ccco4)[C@H]3CC[C@H]2C1=O`
output: 1.21

* * *

Exercise: state measured composite z-score for each of the compounds provided.
- tgt: Torsin-1A-interacting protein 2 (Homo sapiens) (UniProt Q8NFQ8)
- Sequence (Q8NFQ8 whole entry, looked up): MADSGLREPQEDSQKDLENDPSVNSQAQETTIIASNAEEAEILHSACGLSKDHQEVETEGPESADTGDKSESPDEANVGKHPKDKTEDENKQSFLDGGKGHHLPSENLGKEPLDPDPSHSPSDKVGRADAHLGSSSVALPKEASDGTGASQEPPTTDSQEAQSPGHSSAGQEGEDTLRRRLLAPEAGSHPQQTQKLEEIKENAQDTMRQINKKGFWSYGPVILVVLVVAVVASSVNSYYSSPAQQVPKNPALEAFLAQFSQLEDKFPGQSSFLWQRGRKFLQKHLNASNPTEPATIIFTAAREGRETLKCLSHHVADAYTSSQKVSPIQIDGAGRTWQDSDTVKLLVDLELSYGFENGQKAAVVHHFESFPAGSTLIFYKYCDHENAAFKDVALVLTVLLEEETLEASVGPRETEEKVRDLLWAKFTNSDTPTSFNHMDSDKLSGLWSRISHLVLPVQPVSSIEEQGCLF
- measurement_notes: LULL1 binders on small-molecule microarray, primary screen, cell lysate, human LULL1 lysate, 635/667 nm fluorescence (AID 1092);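 further: probe is lysate of COS7 cells overexpressing human LULL1; score merges per-feature 667 nm fluorescence with signal-to-noise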
- conditions: hLULL1 lysate binding, 635 nm fluorescence, higher = more signal
Answers are plain numbers.

compound: CC(C)=NOC(C)CN1CCCc2nc(C)c(C)cc21 (stereo not drawn)
tgt: Torsin-1A-interacting protein 2 (Homo sapiens) (UniProt Q8NFQ8)
composite z-score: 1.31
//
compound: CC(CCN1CCCc2nc(C)c(C)cc21)=NOC[C@@H](O)COCc1ccco1
tgt: Torsin-1A-interacting protein 2 (Homo sapiens) (UniProt Q8NFQ8)
composite z-score: 0.0346
//
compound: C[C@]12CCC3c4ccc(OCC5CO5)cc4CCC3C1CC[C@@H]2O (stereo partly drawn)
tgt: Torsin-1A-interacting protein 2 (Homo sapiens) (UniProt Q8NFQ8)
composite z-score: 2.11
//
compound: CCN1C(=O)[C@H]2[C@H]3[C@H](O)[C@H](O)CC(=NNC(=O)OCc4ccccc4)[C@H]3CC[C@H]2C1=O
tgt: Torsin-1A-interacting protein 2 (Homo sapiens) (UniProt Q8NFQ8)
composite z-score: -0.3
//
compound: CCOC(=O)CCN1C(=O)[C@H]2[C@@H]3C(=CC[C@H]2C1=O)C(=O)[C@H]1O[C@H]1[C@H]3O
tgt: Torsin-1A-interacting protein 2 (Homo sapiens) (UniProt Q8NFQ8)
composite z-score: -0.0261

Could I get composite z-score for every one of these entries?
1. COC(=O)[C@@H]1CC[C@H](C)[C@@H](c2ccc(C)cc2)N1C(=O)c1ccc(C=NOC[C@H]2O[C@H](c3ccccc3)C=C[C@@H]2Oc2ccc(OC)cc2)cc1
2. COc1ccc(COC(=O)NN=C2C[C@@H](O)[C@@H](O)[C@@H]3[C@@H]4C(=O)N(C(C)(C)C)C(=O)[C@@H]4CC[C@@H]23)cc1
3. C[C@H]1CC[C@H]2C(=O)OC(COc3ccc(C(C)(C)C)cc3)CN2[C@@H]1c1ccc(Br)cc1 (stereo partly drawn)

output:
1: -0.703; 2: 0.515; 3: 1.25

* * *

- System: Chordin-like protein 2 (CHRDL2)
- measurement_notes: CHRDL2 small-molecule binders, primary screen, biochemical, small-molecule microarray, 635 nm fluorescence (AID 1126);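 further: printed compound slides probed with Chrdl2 protein at 4 µg/mL for 1 h at 4 C; score merges 667 nm emission intensity with signal to noise over three replicate slides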
- conditions: small-molecule microarray binding, fluorescence 635 nm; higher = more signal
Would you mind labelling by composite z-score? At or over 0.5 is yes, under is no.

Example cases with answers are listed next.
compound: CO[C@H]1COC(=O)CC=C[C@H](C)[C@H](OC)COC(=O)[C@@H](C)NC(=O)CC=C[C@@H]1C
assigned_category: yes
--
compound: COC(=O)[C@H](C)NC(=O)CCC1CC(OC(=O)NCCc2ccc(F)cc2)CC2(CCCC(COC(=O)NCc3ccccc3)O2)O1 (stereo not given in full)
assigned_category: yes
--
compound: CC(C)=NOC(C)CN1CCCCc2nc(C)c(C)cc21 (stereo not given)
assigned_category: yes
--
compound: COc1ccc(-c2cnnc(CCCn3ccnc3-c3ccccc3)n2)cc1
assigned_category: yes

input: Evaluate COC(=O)[C@H](C)NC(=O)CCC1CC(OC(=O)NCc2ccc3c(c2)OCO3)CC2(CCCC(COC(=O)NCCCN3CCCC3=O)O2)O1 (stereo not given in full) : composite z-score at minimum 0.5?
output: yes

* * *

- measurement_notes: PSAC antagonists in infected red cells, primary screen, cell-based, P. falciparum Indochina, OD700, 2 h (AID 1155);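 further: lysis reports solute entry through the parasite surface anion channel PSAC; channel blockers reduce lysis of infected cells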
- conditions: P. falciparum Indochina infected erythrocytes, osmotic lysis OD700; higher = more signal, called active from +8 up or from −8 down
measured_property: z-score
Numbers only.

I need z-score for every entry listed below, if you could help.
1. COC(=O)[C@@H]1CC[C@H](C)[C@@H](c2ccc(C)cc2)N1C(=O)c1ccc(C=NO[C@@H](C)c2cc(-c3c(C)cc(C)cc3C)no2)cc1
2. C[C@@H]1CC[C@H]2C(=O)N3[C@@H](CC[C@@H](C)[C@@H]3c3ccc(Br)cc3)C(=O)N2[C@H]1c1ccc(Br)cc1
3. CO[C@H]1COC(=O)CC=C[C@@H](C)COC(=O)[C@H]2CCCN2C(=O)CC=C[C@H]1C

output:
[0.804, 1.07, -0.25]

List the reported z-score of each compound below.
1. COC(=O)[C@H](C)NC(=O)CCC1CC(OC(=O)NCc2cccc3ccccc23)CC2(CCCC(COC(=O)NCCc3ccccc3OC)O2)O1 (some centres not stated)
2. CCOC(=O)[C@H](Cc1ccccc1)NC(=O)CCC1CC(OC(=O)NCc2ccc3c(c2)OCO3)CC2(CCCC(COC(=O)NCCc3ccc(Cl)cc3)O2)O1 (some centres not stated)
3. CC(C)(C)N1C(=O)[C@H]2[C@@H]3C(=CC[C@H]2C1=O)C(=O)[C@H]1O[C@H]1[C@H]3O
4. CC#CCOCCC=C1c2ccccc2[C@@H](OC)[C@@H]1C

output:
1: 1.37; 2: -0.0302; 3: -1.7; 4: -0.16

* * *

I'd be grateful if you could share measured z-score for these entries.
- measurement_notes: basal RPMI8226 viability, no added stimulus, profiling panel, cell-based, calcein-AM fluorescence, 48 h, PK04 Diversity Set (AID 1166);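 further: cells grown under basal conditions without added stimulus; test concentration not given here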
- conditions: RPMI8226 myeloma viability, higher = more signal
Numbers only.

compound: CCN1C(=O)[C@H]2[C@H]3[C@H](O)[C@H](O)CC(=NOC(C)CN4CCCc5nc(C)c(C)cc54)[C@@H]3CC[C@H]2C1=O (stereo partly specified)
obs_value: -0.99

// batch mode: one z-score value per listed entry
1. COc1ccc(COC(=O)NN=C2C[C@@H](O)[C@@H](O)[C@@H]3[C@@H]4C(=O)N(Cc5ccccc5)C(=O)[C@@H]4CC[C@@H]23)cc1
2. COc1ccc(COC(=O)NN=C2C[C@@H](O)[C@@H](O)[C@@H]3[C@@H]4C(=O)N(C[C@@H]5CCCO5)C(=O)[C@@H]4CC[C@@H]23)cc1
3. CCOC(=O)[C@H](Cc1ccccc1)NC(=O)CCC1CC(OC(=O)NCc2cccc3ccccc23)CC2(CCCC(COC(=O)NCCc3ccccc3OC)O2)O1 (stereo partly specified)
4. CC1(C)O[C@H]2O[C@H]([C@H](O)CON=C3[C@H]4CCn5c(=O)n(-c6ccccc6)c(=O)n5[C@H]4[C@H](O)[C@@H]4O[C@H]34)[C@H](O)[C@H]2O1
5. COC(=O)CC=C[C@@H](C)[C@@H](C=NOC[C@@H](C)[C@H](OCc1ccccc1)C(C)C)NS(=O)(=O)c1ccc(C)cc1

output:
[1.61, 0.51, -1.39, 0.279, -0.96]
